testSummary: Protein binding, equilibrium dialysis chamber, LC-MS/MS
Format: in vitro ADME
Excerpt: […]. […] […]. . […] Free drug concentrations were used in all calculations. […]
valueType: fraction unbound
Write the number on its own, no unit after it.

Query: Which measured fraction unbound value corresponds to CO/N=C(\C(=O)N[C@@H]1C(=O)N2C(C(=O)[O-])=C(C[N+]3(C)CCCC3)CS[C@H]12)c1csc(N)n1 [cefepime, Cefepime] ?
Result: 0.8
